# subject_of_test: MC receptors in rat brain homogenate (rat)
# method_description: saturation radioligand binding, rat brain membranes
*1 amine or outer side, *2 acyl side, *3 side chain or, on linkers, in order; H or OH if unused. [ ]: non-standard residue; d: D form. dPhe(4-125I) = para-(125I)iodo-D-phenylalanine, O=C([C@@H](Cc1ccc([125I])cc1)N[*:1])[*:2]; Nle = CCCC[C@H](N)C(=O)O
observation_type: Kd (nM)
Give just the number in nM; leave the unit off.

Record summary for Ac-[Nle]QH[dPhe(4-125I)]R[dW]G-NH2 [^125I-HP 467, Ac-Nle-Gln-His-(p(^125I)-D-Phe)-Arg-(D-Trp)-Gly-NH2] : reported Kd = 0.4
